# Experimental Target: PTPN11-E76K mutant enzyme (Homo sapiens (Human), UniProt Q06124, E76K)
# Sequence (Q06124 whole entry E76K): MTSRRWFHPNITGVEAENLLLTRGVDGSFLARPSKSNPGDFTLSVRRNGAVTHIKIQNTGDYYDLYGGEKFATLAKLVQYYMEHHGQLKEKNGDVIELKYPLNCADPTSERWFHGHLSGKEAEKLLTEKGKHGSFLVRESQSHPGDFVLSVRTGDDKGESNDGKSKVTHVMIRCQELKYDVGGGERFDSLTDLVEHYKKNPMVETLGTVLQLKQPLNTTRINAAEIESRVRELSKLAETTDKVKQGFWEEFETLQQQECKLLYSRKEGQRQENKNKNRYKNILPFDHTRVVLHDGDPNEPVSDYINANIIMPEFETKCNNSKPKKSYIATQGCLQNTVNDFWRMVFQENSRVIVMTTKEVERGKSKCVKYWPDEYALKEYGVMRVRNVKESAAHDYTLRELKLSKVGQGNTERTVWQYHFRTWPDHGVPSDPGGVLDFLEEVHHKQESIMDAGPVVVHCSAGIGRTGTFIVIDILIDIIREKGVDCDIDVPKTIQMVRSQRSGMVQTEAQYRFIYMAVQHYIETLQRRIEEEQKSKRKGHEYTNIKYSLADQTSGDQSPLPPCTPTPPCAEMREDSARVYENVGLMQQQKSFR
# Method Summary: PTPN11 Enzymatic Assay (DiFMUP phosphatase activity)
# Study Conditions: full length PTPN11-E76K, DiFMUP substrate; read-out: IC50, inhibition of PTPN11-E76K mutant enzyme
# pIC50 values compiled below
Please express pIC50 as -log10 of the molar concentration.

Sample answers from the record:
Cc1nc(N2CCC3(CC2)CO[C@@H](C)[C@H]3N)c(Br)c(=O)n1-c1cccc(Cl)c1Cl (atropisomer, axis not shown; (Sa)) [Example 12a] | 5.46
Cc1c(N2CCC3(CC2)CO[C@@H](C)[C@H]3N)nc(C)n(-c2ccc(Oc3ccn(C)n3)c(Cl)c2Cl)c1=O (atropisomer, axis not shown; (Sa)) [Example 18a] | 6.29
CCC1(N)CCN(c2cc(=O)n(-c3cccc(Cl)c3Cl)c(C)n2)CC1 | 6.32
Cc1nc(N2CCC3(CC2)CO[C@@H](C)[C@H]3N)cc(=O)n1-c1cccc(Cl)c1Br | 6.44
Cc1c(N2CCC3(CC2)CO[C@@H](C)[C@H]3N)nc(C)n(-c2cccc(Cl)c2Cl)c1=O (atropisomer, axis not shown; (Ra)) [Example 10b] | 7.55
COc1cccc(-n2c(C)nc(N3CCC4(CC3)CO[C@@H](C)[C@H]4N)cc2=O)c1Cl (atropisomer, axis not shown; (Ra)) [Example 7b] | 6.82
Cc1c(N2CCC3(CC2)CO[C@@H](C)[C@H]3N)nc(C)n(-c2cccc(Cl)c2Cl)c1=O (atropisomer, axis not shown; (Sa)) [Example 10a] | 5.59
Cc1nc(N2CCC(C)(CN)CC2)cc(=O)n1-c1cccc(Cl)c1Cl | 6.51

Exam item: # get_value(readout='pIC50', item= Cc1nc(N2CCC3(CC2)CO[C@@H](C)[C@H]3N)cc(=O)n1-c1ccc(Oc2ccccc2)c(Cl)c1Cl (atropisomer, axis not shown; (Ra)) [Example 15b] )
Marked response: 6.83

Exam item: # get_value(readout='pIC50', item= `Cc1nc(N2CCC3(CC2)CO[C@@H](C)[C@H]3N)cc(=O)n1-c1ccc(Br)c(Cl)c1Cl` )
Marked response: 6.69

Exam item: # get_value(readout='pIC50', item= Cc1c(N2CCC3(CC2)CO[C@@H](C)[C@H]3N)nc(C)n(-c2ccc(Oc3cc[nH]n3)c(Cl)c2Cl)c1=O (atropisomer, axis not shown; (Ra)) [Example 20b] )
Marked response: 8.30

Exam item: # get_value(readout='pIC50', item= Cc1nc(N2CCC3(CC2)CO[C@@H](C)[C@H]3N)cc(=O)n1-c1ccc(Oc2ccn(C)n2)c(Cl)c1Cl (atropisomer, axis not shown; (Sa)) [Example 16a] )
Marked response: 5.02

Exam item: # get_value(readout='pIC50', item= Cc1nc(N2CCC3(CC2)CO[C@@H](C)[C@H]3N)c(Br)c(=O)n1-c1cccc(Cl)c1Cl (atropisomer, axis not shown; (Ra)) [Example 12b] )
Marked response: 7.70
